Target: ΔF508-CFTR (Homo sapiens, UniProt P13569, DEL508-508)
Construct: host or cells: CFBE41o-, doxycycline-inducible
Sequence (P13569 with tags, fused parts or gaps DEL508-508): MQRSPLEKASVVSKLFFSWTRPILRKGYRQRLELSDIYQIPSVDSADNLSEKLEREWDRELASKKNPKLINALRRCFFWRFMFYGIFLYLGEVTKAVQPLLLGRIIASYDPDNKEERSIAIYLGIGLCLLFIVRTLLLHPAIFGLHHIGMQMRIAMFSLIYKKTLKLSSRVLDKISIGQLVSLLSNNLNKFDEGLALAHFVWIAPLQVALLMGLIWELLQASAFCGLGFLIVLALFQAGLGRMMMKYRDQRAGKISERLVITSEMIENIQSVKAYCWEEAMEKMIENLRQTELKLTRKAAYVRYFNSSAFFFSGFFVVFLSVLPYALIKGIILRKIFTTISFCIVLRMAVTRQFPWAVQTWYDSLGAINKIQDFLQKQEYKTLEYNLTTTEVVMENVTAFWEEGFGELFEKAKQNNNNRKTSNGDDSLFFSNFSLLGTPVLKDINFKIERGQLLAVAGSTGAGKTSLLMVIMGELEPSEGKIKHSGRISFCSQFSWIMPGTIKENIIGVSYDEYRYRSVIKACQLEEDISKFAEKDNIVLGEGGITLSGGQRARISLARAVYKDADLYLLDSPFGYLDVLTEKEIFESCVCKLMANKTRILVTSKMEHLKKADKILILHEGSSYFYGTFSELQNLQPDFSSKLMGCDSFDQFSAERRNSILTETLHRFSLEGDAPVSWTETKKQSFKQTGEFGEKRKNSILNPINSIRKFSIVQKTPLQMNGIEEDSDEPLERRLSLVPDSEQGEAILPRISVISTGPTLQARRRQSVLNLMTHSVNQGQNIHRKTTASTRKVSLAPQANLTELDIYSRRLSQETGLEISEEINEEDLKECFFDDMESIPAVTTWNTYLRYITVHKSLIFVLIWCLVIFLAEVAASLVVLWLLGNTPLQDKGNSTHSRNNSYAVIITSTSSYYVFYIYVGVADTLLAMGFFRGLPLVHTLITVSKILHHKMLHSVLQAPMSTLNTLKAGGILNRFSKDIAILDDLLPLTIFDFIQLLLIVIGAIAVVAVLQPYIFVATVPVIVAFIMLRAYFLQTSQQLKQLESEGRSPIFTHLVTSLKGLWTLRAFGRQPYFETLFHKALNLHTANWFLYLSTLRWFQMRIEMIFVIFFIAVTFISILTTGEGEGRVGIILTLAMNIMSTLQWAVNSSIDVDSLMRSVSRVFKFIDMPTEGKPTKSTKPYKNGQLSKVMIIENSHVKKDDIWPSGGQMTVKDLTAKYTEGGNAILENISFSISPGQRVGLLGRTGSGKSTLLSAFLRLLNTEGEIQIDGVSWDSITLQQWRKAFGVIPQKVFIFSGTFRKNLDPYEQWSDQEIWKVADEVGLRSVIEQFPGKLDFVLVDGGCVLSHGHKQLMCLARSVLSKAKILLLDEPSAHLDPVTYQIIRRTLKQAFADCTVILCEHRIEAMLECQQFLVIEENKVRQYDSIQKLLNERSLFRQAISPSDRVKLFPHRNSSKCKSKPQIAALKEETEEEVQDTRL
Assay: CFTR cell surface levels using HRP-tagged ΔF508-CFTR expressing CFBE cells, intrinsic corrector capacity
Type: cell-based
Conditions: HRP-tagged ΔF508-CFTR expressing CFBE cells; intrinsic corrector capacity (no co-corrector); 33° C., 20 hours; read-out: EC50
MEASURED_QUANTITY: pEC50
In textbook form, pEC50 equals minus log to base ten of the concentration in mol/L.

Consider the compound shown here: CCC1(COc2cc(C(=O)O)nc3c2c(C2CCC2)nn3-c2ccccc2)COCOC1 What is its recorded pEC50?
6.60

Entry to check: COCC1CN(CC2CCN(c3cc(C(=O)O)nc4c3c(C3CCC3)nn4-c3ccccc3)CC2)C1
5.84

Entry to check: CN1C(=O)CN(CC2CCN(c3cc(C(=O)O)nc4c3c(C3CCC3)nn4-c3ccccc3)CC2)CC12COC2
5.83

Entry to check: O=C(O)c1cc(N2CCC(N3CCOCC3)CC2)c2c(C3CCC3)nn(-c3cccc(F)c3)c2n1
6.68

Entry to check: O=C(O)c1cc(OC(CN2CCOCC2)CN2CCOCC2)c2c(C3CCC3)nn(-c3ccccc3)c2n1
5.48

Entry to check: CC(C)c1nn(-c2ccc(F)cc2)c2nc(C(=O)O)cc(OCC3(C)CC(F)(F)C3)c12
6.48

Entry to check: O=C(O)c1cc(N2CCC(CN3CCCOCC3)CC2)c2c(C3CCC3)nn(-c3ccccc3)c2n1
6.62

---

Target: ΔF508-CFTR (Homo sapiens, UniProt P13569, DEL508-508)
Construct: host or cells: CFBE41o-, doxycycline-inducible
Assay: CFTR cell surface levels using HRP-tagged ΔF508-CFTR expressing CFBE cells, intrinsic corrector capacity
Format: cell-based
Settings: HRP-tagged ΔF508-CFTR CFBE41o- cells, compounds alone (intrinsic corrector capacity), 20 hours at 33° C.; read-out: EC50
MEASURED_QUANTITY: EC50 (µM)
Field format: number, assumed µM, no unit text.

Consider the compound shown here: CC(C)c1nn(-c2ccnc(N3CCCC3)c2)c2nc(C(=O)O)cc(-c3ccc(N4CCC(C#N)CC4)cc3)c12 What is its recorded EC50?
0.345

Entry to check: CC(C)c1nn(-c2ccccc2)c2nc(C(=O)O)cc(-c3ccc(N4CCCC4)cc3)c12
1.83

Entry to check: CC(C)c1nn(-c2ccc(F)cc2F)c2nc(C(=O)O)cc(-c3ccc(N4CCC(C#N)CC4)cc3)c12
0.369

Entry to check: Cc1nn(-c2ccccc2)c2nc(C(=O)O)cc(OCCC3CC(F)(F)C3)c12
1.41

Entry to check: Cc1cccc(-n2nc(C(C)C)c3c(N4CCC(C#N)C4)cc(C(=O)O)nc32)c1 (stereo not shown)
2.31

Entry to check: Cc1nn(-c2cccc(Cl)c2)c2nc(C(=O)O)cc(-c3ccc(N4CCOCC4)cc3)c12
1.38

Entry to check: Cc1nn(-c2ccccc2)c2nc(C(=O)O)cc(-c3ccc(N4CC(O)C4)cc3)c12
3.08

Entry to check: CC(C)c1nn(-c2cccc(N(C)C)c2)c2nc(C(=O)O)cc(-c3cnc(N4CCC(C#N)CC4)nc3)c12
1.22

Entry to check: Cc1cccc(-n2nc(C(C)C)c3c(N4CCC(S(C)(=O)=O)CC4)cc(C(=O)O)nc32)c1
2.53

Entry to check: CC(C)(O)c1nn(-c2ccccc2)c2nc(C(=O)O)cc(-c3ccc(N4CCOCC4)cc3)c12
3.34

Entry to check: CC(C)c1nn(-c2ccc(F)c(F)c2)c2nc(C(=O)O)cc(-c3ccc(N4CCOCC4)cc3)c12
0.66

Entry to check: Cc1cccc(-n2nc(C(C)C)c3c(N4CCCC4)cc(C(=O)O)nc32)c1
2.95

Entry to check: CC(C)c1nn(C2CCCCC2)c2nc(C(=O)O)cc(C3=CCN(C(=O)OC(C)(C)C)CC3)c12
1.31

Entry to check: Cc1cccc(-n2nc(C(C)C)c3c(N4CCC5(CCOCC5)C4)cc(C(=O)O)nc32)c1
0.916

Entry to check: Cc1nn(-c2ccccc2)c2nc(C(=O)O)cc(-c3ccc(NC4CCC4)cc3)c12
1.53

Entry to check: CN(c1ccc(-c2cc(C(=O)O)nc3c2c(C2CCC2)nn3-c2cccc(N3CCCC3)c2)cc1)C1CCOCC1
0.438

Entry to check: CC(C)c1nn(-c2ccc(OC(F)(F)F)cc2)c2nc(C(=O)O)cc(-c3ccc(N4CCOCC4)cc3)c12
0.408

Entry to check: Cc1nn(-c2ccccc2)c2nc(C(=O)O)cc(N3CCC4(CCCO4)C3)c12 (stereo not shown)
2.51

Entry to check: Cc1nn(-c2ccccc2)c2nc(C(=O)O)cc(-c3ccc(N4CCN(C)CC4)cc3)c12
3.34

Entry to check: CC(C)c1nn(-c2cccc(N(C)C)c2)c2nc(C(=O)O)cc(N3CCCCC3)c12
0.671

Entry to check: CC(C)c1nn(C2CCCCC2)c2nc(C(=O)O)cc(-c3cnc(N4CCOCC4)nc3)c12
0.611

Entry to check: CN(C)c1ccc(-c2cc(C(=O)O)nc3c2c(C2CC2)nn3C2CCCCC2)cn1
0.633

Entry to check: Cc1nn(-c2ccccc2)c2nc(C(=O)O)cc(N3CCCOCC3)c12
3.43

Entry to check: Cc1nn(-c2cccc(OC(F)(F)F)c2)c2nc(C(=O)O)cc(-c3ccc(N4CCOCC4)cc3)c12
0.737

Entry to check: Cc1nn(-c2ccccc2)c2nc(C(=O)O)cc(OCC(=O)N3CCCCC3)c12
5.01

Entry to check: O=C(O)c1cc(-c2ccc(N3CCOCC3)cc2)c2c(C3CCCO3)nn(-c3ccccc3)c2n1 (stereo not shown)
1.87

Entry to check: Cc1nn(-c2ccccc2)c2nc(C(=O)O)cc(-c3ccc(N4CC5CCC(C4)O5)cc3)c12
0.982

Entry to check: CC(C)c1nn(-c2cccc(N(C)C)c2)c2nc(C(=O)O)cc(N3CCC(CO)CC3)c12
1.05

Entry to check: CC(=O)NC1CCN(c2ccc(-c3cc(C(=O)O)nc4c3c(C)nn4-c3ccccc3)cc2)C1 (stereo not shown)
3.34

---

Give EC50 for every item shown.
Molecular target: ΔF508-CFTR (Homo sapiens, UniProt P13569, DEL508-508)
Construct: host or cells: CFBE41o-, doxycycline-inducible
Assay: CFTR cell surface levels using HRP-tagged ΔF508-CFTR expressing CFBE cells, in the presence of a co-corrector
Assay type: cell-based
Settings: HRP-tagged ΔF508-CFTR expressing CFBE cells, in the presence of 3 μM co-corrector; read-out: EC50
Excerpt: Measuring CFTR Cell Surface Levels Using HRP-Tagged AF508-CFTR Expressing CFBE Cells The HRP-tagged AF508-CFTR cell assay measures the expression of CFTR-ΔF508 at the plasma membrane. […] When HRP-tagged AF508-CFTR is present at the plasma membrane, the HRP enzyme activity can be measured. The amount of CFTR-ΔF508 that can be rescued to the plasma membrane is correlated with the amount of functional enzyme that can be measured. […]
Field format: number, assumed µM, no unit text.

Consider the molecule shown here: CCCCN1CCCN(c2cc(C(=O)O)nc3c2c(C(C)C)nn3-c2ccc(F)cc2)CC1 What is its recorded EC50?
1.67

Entry to check: CN1C(=O)CO[C@@H]2CN(c3cc(C(=O)O)nc4c3c(C3CCC3)nn4-c3ccccc3)C[C@@H]21
3.19

Entry to check: O=C(O)c1cc(N2CCC(N3CCCCC3)CC2)c2c(C3CCC3)nn(-c3ccc(F)cc3)c2n1
0.325

Entry to check: CC(C)c1nn(C2CCCCC2)c2nc(C(=O)O)cc(-c3ccc(N4CCCC(F)C4)nc3)c12 (stereo not shown)
0.687

Entry to check: O=C(O)c1cc(N2CCCC3(CC3)C2)c2c(C3CCC3)nn(-c3ccccc3)c2n1
0.509

Entry to check: CC(C)c1nn(-c2ccc(F)cc2)c2nc(C(=O)O)cc(N3CCC(C4CCN(C5COC5)CC4)CC3)c12
0.104

Entry to check: N#CC1CCN(c2ccc(-c3cc(C(=O)O)nc4c3c(C3CCC3)nn4-c3cccc(N4CCCC4)c3)cc2)CC1
0.332

Entry to check: COCC1CN(c2cc(C(=O)O)nc3c2c(C2CCC2)nn3-c2ccccc2)C1
0.598

Entry to check: CN(C)c1ncc(-c2cc(C(=O)O)nc3c2c(C(C)(C)C)nn3C2CCCC2)cn1
3.34

Entry to check: CC(C)c1nn(-c2ccc(F)cc2)c2nc(C(=O)O)cc(N3CCC(N4CCN(C)CC4)CC3)c12
0.301

Entry to check: O=C(O)c1cc(N2CC(F)(F)C2)c2c(C3CCC3)nn(-c3ccccc3)c2n1
1.94

Entry to check: COC1CN(c2cc(C(=O)O)nc3c2c(C2CCC2)nn3-c2ccccc2)C1
1.78

Entry to check: CCCN1CCN(c2cc(C(=O)O)nc3c2c(C2CCC2)nn3-c2ccccc2)CC1
0.341

Entry to check: CCOC(=O)N1CCN(c2cc(C(=O)O)nc3c2c(C2CCC2)nn3-c2ccccc2)CC1
0.198

Entry to check: O=C(O)c1cc(N2CC3(CCCC3)C2)c2c(C3CCC3)nn(-c3ccccc3)c2n1
0.849

Entry to check: CC(C)N(CCOc1cc(C(=O)O)nc2c1c(C1CCC1)nn2-c1ccccc1)C1COC1
0.409
